Value source: ChEMBL document CHEMBL4000143

# ASSAYED TARGET: 5-hydroxytryptamine receptor 2A (Homo sapiens, UniProt P28223)
# Sequence (P28223 whole entry): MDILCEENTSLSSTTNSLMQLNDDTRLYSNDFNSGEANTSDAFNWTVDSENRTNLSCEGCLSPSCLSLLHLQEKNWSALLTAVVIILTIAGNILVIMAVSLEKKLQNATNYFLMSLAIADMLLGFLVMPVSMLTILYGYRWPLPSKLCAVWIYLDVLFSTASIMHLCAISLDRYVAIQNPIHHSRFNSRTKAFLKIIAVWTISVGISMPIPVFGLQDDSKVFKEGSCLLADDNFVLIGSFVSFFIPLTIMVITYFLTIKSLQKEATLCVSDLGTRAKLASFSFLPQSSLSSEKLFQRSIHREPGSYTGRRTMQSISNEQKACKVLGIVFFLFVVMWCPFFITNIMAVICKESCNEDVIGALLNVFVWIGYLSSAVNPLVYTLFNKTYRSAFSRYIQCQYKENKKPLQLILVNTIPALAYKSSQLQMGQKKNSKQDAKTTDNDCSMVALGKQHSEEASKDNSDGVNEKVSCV
# ASSAY OVERVIEW: Antagonist activity at human 5-HT2A receptor expressed in F1pIn CHO cells assessed as inhibition of serotonin-induced myo-inositol 1 phosphate accumulation after 1 hr by HTRF assay
# Assay type: functional, cell-based
Readings of pKb for the listed compounds
MEASURED METRIC: pKb

INSERT INTO measurements (smiles_representation, result_value) VALUES
  ('O=C1COc2ccccc2N1CCCN1CCN(c2cccc3[nH]c(=O)oc23)CC1', 5.94),
  ('O=C(Cc1ccccc1)NC1CCN(CCCN2C(=O)COc3ccccc32)CC1', 5.8),
  ('COc1ccccc1N1CCN(CCCN2C(=O)COc3ccccc32)CC1', 6.24),
  ('O=C1COc2ccccc2N1CCCN1CCC(c2noc3cc(F)ccc23)CC1', 7.67),
  ('O=C1COc2ccccc2N1CCCN1CCN(c2cccc(Cl)c2Cl)CC1', 5.73),
  ('O=C1COc2ccccc2N1CCCN1CCN(c2nsc3ccccc23)CC1', 6.63);
